// Coagulation factor XI (Homo sapiens, UniProt P03951) pIC50 records
pIC50 is a log-scale quantity: -log10 of the concentration expressed in molar.

These solved cases illustrate the format of a correct answer.
O=c1c2ccccc2nc(-c2cccc(OS(=O)(=O)O)c2)n1CCOCCn1c(-c2cccc(OS(=O)(=O)O)c2)nc2ccccc2c1=O
3.40
O=c1c2ccccc2nc(-c2ccc(OS(=O)(=O)O)cc2)n1CCCCCn1c(-c2ccc(OS(=O)(=O)O)cc2)nc2ccccc2c1=O
4.31
O=c1c2ccccc2nc(-c2ccc(OS(=O)(=O)O)cc2)n1CCCCCCCCn1cc(Cn2c(-c3ccc(OS(=O)(=O)O)cc3)nc3ccccc3c2=O)nn1
4.41
O=c1c2ccccc2nc(-c2ccc(OS(=O)(=O)O)cc2)n1CCCCCCCCCn1cc(Cn2c(-c3ccc(OS(=O)(=O)O)cc3)nc3ccccc3c2=O)nn1
4.47
O=c1c2ccccc2nc(-c2ccc(OS(=O)(=O)O)cc2)n1CCCCCCCCCCCCn1cc(Cn2c(-c3ccc(OS(=O)(=O)O)cc3)nc3ccccc3c2=O)nn1
4.46

Field pIC50 (Coagulation factor XI (Homo sapiens, UniProt P03951)), entry O=c1c2ccccc2nc(-c2ccc(OS(=O)(=O)O)cc2)n1CCCCCCCCCCCn1c(-c2ccc(OS(=O)(=O)O)cc2)nc2ccccc2c1=O : 4.84
